System: NCI-H322M lung
Assay: NCI-60 one-dose screen, 48 h
Details: 10 µM
Compounds without any hit were thinned out: in the full panel of roughly 83,000, 20% have a hit. The source made the active and inactive calls. How the source made its calls: active means growth percent below 10; inactive means the rest.
Hi there, use one of these labels in your reply, thanks! 1 (active), -1 (inactive)

Prompt: Returns: the outcome recorded for CCOC(=O)N1C/C(=C/c2ccc(Cl)cc2)C(=O)/C(=C/c2ccc(Cl)cc2)C1 in this assay.
Completion: -1

Prompt: # repeat for NC1=NC(=O)C(c2ccccc2)(c2ccccc2)S1
Completion: -1

Prompt: # repeat for CCN(CC)CCN1CC(=O)Nc2cc(Cl)ccc21
Completion: -1

Prompt: # repeat for O=C1/C(=C/c2ccc([N+](=O)[O-])s2)Oc2ccccc21
Completion: 1

Prompt: # repeat for CCN(CC)CCC(CNc1c(C)cnc2cc(Cl)ccc12)c1ccc(Cl)c(Cl)c1 (stereo not given)
Completion: -1

Prompt: # repeat for O=C(CC(C(=O)c1ccccc1)N1CCOCC1)c1ccccc1 (stereo not given)
Completion: -1

Prompt: # repeat for CC1CC(=O)OC(C)C1 (stereo not given)
Completion: -1

Prompt: # repeat for OCC1OC(n2cnc3c(N/N=C\c4ccccn4)ncnc32)C(O)C1O (stereo not given)
Completion: 1

Prompt: # repeat for O=C1OCC2=C1C(c1cccc(Cl)c1)c1cc3c(cc1N2CCO)OCCO3 (stereo not given)
Completion: -1

Prompt: # repeat for COc1cc(-c2cc(-c3cc4c([nH]c5ccccc54)c(-c4cc(OC)c(OC)c(OC)c4)n3)cc(-c3ccccc3)n2)cc(OC)c1OC
Completion: -1

Prompt: # repeat for Cc1ccc(C)c(C(O)(c2cc(C)ccc2C)C2(O)CCCCC2)c1
Completion: -1

Prompt: # repeat for FC(F)(F)c1ccc(-c2cnc(-n3cc(COCCN4CCCCC4)nn3)nc2NC2CCCCCC2)cc1
Completion: -1

Prompt: # repeat for COc1cc(NC(=O)CSc2nc3ccccc3c(=O)n2CCc2ccccc2)cc(OC)c1OC
Completion: -1

Prompt: # repeat for CN(C)Cc1cn(-c2ncc(-c3ccc(C(F)(F)F)cc3)c(NC3CCCCCC3)n2)nn1
Completion: -1

Prompt: # repeat for COc1cc(/C=C\c2cc(OC)c(OC)c(OC)c2)cc(NS(=O)(=O)c2ccc(Cl)cc2)c1OC
Completion: -1

Prompt: # repeat for CCCCCCCCCCCCCCCC(=O)OC1[C@@H](OC(=O)CCCCCCCCCCCCCCC)[C@@H](C(=O)N[C@@H](CCCCN)C(=O)OC)O[C@H]1n1cnc2c(=O)[nH]c(NC(=O)C(C)C)nc21 (stereo not given in full)
Completion: -1

Prompt: # repeat for C/C(N)=C(\C#N)C(=O)c1ccccc1
Completion: -1

Prompt: # repeat for O=C(Cc1csc2nc(-c3ccc(Cl)cc3)cn12)N/N=C/c1ccccc1O
Completion: -1

Prompt: # repeat for Cc1cccc(Cl)c1NC(=O)c1ccc2nc(NC(=O)NC3CCN(C)CC3)sc2c1
Completion: -1

Prompt: # repeat for Clc1ccc2c(NCCCNc3nccc(Nc4ccc(Br)cc4)n3)ccnc2c1
Completion: 1

These measurements were taken from PubChem BioAssay (NCI).
